// provenance: paper PMC5340008

- TARGET_UNDER_TEST: KPC-2 β-lactamase (UniProt Q9F663 25-293)
- Sequence (Q9F663 25-293): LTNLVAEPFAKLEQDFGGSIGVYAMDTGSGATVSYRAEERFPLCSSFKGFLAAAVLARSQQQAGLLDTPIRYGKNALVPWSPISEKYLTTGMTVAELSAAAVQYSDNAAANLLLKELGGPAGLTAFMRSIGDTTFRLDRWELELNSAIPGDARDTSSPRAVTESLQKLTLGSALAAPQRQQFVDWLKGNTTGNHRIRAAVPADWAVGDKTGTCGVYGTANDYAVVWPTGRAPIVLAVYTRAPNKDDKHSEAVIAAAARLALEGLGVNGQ
- PROTOCOL_DETAILS: β-lactamase inhibition assay (nitrocefin hydrolysis, Morrison tight-binding fit); increasing concentrations of BLIP incubated with 1 nM β-lactamase for 1 h at room temperature in 50 mM sodium phosphate pH 7.0; nitrocefin added at its Km, initial velocity at 482 nm; Ki calculated from Ki app
- EXPERIMENTAL_CONDITIONS: both partners purified
QUANTITY_MEASURED: log10 Ki (log10 of the value in nM)
Each number you see is log10 of Ki, and the unit inside the log is nM.

See these solved cases before continuing.
BLIP [change] (natural protein) AGVMTGAKFTQIQFGMTRQQVLDIAGAENCETGGSFGDSIHCRGHAAGDQYAYATFGFTSAAADAKVDSKSQEKLLAPSAPTLTLAKFNQVTVGMTRAQVLATVGQGSCTTWSEYYPAYPSTAGVTLSLSCFDVDGYSSTGFYRGSAHLWFTDGVLQGKRQWDLV ... 0.00
BLIP [change] (natural protein) AGVMTGAKFTQIQFGMTRQQVLDIAGAENCETGGSFGDSIHCRGHAAGDFYAYATFGFTSAAADAKVDSKSQEKLLAPSAPTLTLAKFNQVTVGMTRAQVLATVGQGSCTTWSEYYPAYPSTAGVTLSLSCFDVDGYSSTGFYRGSAHLWFTDGVLQGKRQWDLV ... 1.18
BLIP [change] (natural protein) AGVMTGAKFTQIQFGMTRQQVLDIAGAENCETGGSFGDSIHCRGHAAGDSYAYATFGFTSAAADAKVDSKSQEKLLAPSAPTLTLAKFNQVTVGMTRAQVLATVGQGSCTTWSEYYPAYPSTAGVTLSLSCFDVDGYSSTGFYRGSAHLWFTDGVLQGKRQWDLV ... 0.70
BLIP [change] (natural protein) AGVMTGAKFTQIQFGMTRQQVLDIAGAENCETGGSFGDSIHCRGHAAGDVYAYATFGFTSAAADAKVDSKSQEKLLAPSAPTLTLAKFNQVTVGMTRAQVLATVGQGSCTTWSEYYPAYPSTAGVTLSLSCFDVDGYSSTGFYRGSAHLWFTDGVLQGKRQWDLV ... 1.00

Input: Output measured log10 Ki for this item: BLIP [change] (natural protein) AGVMTGAKFTQIQFGMTRQQVLDIAGAENCETGGSFGDSIHCRGHAAGDAYAYATFGFTSAAADAKVDSKSQEKLLAPSAPTLTLAKFNQVTVGMTRAQVLATVGQGSCTTWSEYYPAYPSTAGVTLSLSCFDVDGYSSTGFYRGSAHLWFTDGVLQGKRQWDLV
Output: 0.28

Input: Output measured log10 Ki for this item: BLIP [change] (natural protein) AGVMTGAKFTQIQFGMTRQQVLDIAGAENCETGGSFGDSIHCRGHAAGDLYAYATFGFTSAAADAKVDSKSQEKLLAPSAPTLTLAKFNQVTVGMTRAQVLATVGQGSCTTWSEYYPAYPSTAGVTLSLSCFDVDGYSSTGFYRGSAHLWFTDGVLQGKRQWDLV
Output: -0.15
